Documented inhibition zone (IZ) across a set of compounds
Test system: Bacillus subtilis
testProtocol: Antimicrobial activity against Bacillus subtilis MTCC 619 after 24 hr by disk diffusion method
Assay type: functional
Numeric answer only, unit mm assumed.

Consider the reported inhibition zone (IZ) for these compounds:
>>> observed("CC1=NN(c2ccccc2Cl)C(=O)C1/N=N/c1n[nH]c2nc3cc4ccccc4cc3cc12 (stereo not given)")
16
>>> observed("CC1=NN(c2cccc(Cl)c2)C(=O)C1/N=N/c1n[nH]c2nc3cc4ccccc4cc3cc12 (stereo not given)")
18
>>> observed("CC1=NN(c2ccc(C)cc2)C(=O)C1/N=N/c1n[nH]c2nc3cc4ccccc4cc3cc12 (stereo not given)")
16
>>> observed("CC1=NN(c2cc(Cl)ccc2Cl)C(=O)C1/N=N/c1n[nH]c2nc3cc4ccccc4cc3cc12 (stereo not given)")
24
>>> observed("CC1=NN(c2cccc(S(=O)(=O)O)c2)C(=O)C1/N=N/c1n[nH]c2nc3cc4ccccc4cc3cc12 (stereo not given)")
12
>>> observed("CC1=NN(c2ccc(S(=O)(=O)O)cc2)C(=O)C1/N=N/c1n[nH]c2nc3cc4ccccc4cc3cc12 (stereo not given)")
12

Now consider the entry below.
Which inhibition zone (IZ) value is on record for CC1=NN(c2ccc(Cl)c(Cl)c2)C(=O)C1/N=N/c1n[nH]c2nc3cc4ccccc4cc3cc12 (stereo not given) ?
24

---

Documented inhibition zone (IZ) across a set of compounds
Tested on: Escherichia coli
testProtocol: Antimicrobial activity against Escherichia coli MTCC 739 after 24 hr by disk diffusion method
Type: functional

Consider the reported inhibition zone (IZ) for these compounds:
>>> observed("CC1=NN(c2cc(S(=O)(=O)O)ccc2Cl)C(=O)C1/N=N/c1n[nH]c2nc3cc4ccccc4cc3cc12 (stereo not given)")
"18 mm"
>>> observed("CC1=NN(c2ccc(S(=O)(=O)O)cc2)C(=O)C1/N=N/c1n[nH]c2nc3cc4ccccc4cc3cc12 (stereo not given)")
"10 mm"
>>> observed("CC1=NN(c2ccc(Cl)c(Cl)c2)C(=O)C1/N=N/c1n[nH]c2nc3cc4ccccc4cc3cc12 (stereo not given)")
"20 mm"
>>> observed("CC1=NN(c2ccc(C)cc2)C(=O)C1/N=N/c1n[nH]c2nc3cc4ccccc4cc3cc12 (stereo not given)")
"12 mm"
>>> observed("CC1=NN(c2ccc(S(=O)(=O)O)cc2C)C(=O)C1/N=N/c1n[nH]c2nc3cc4ccccc4cc3cc12 (stereo not given)")
"12 mm"

Now consider the entry below.
Which inhibition zone (IZ) value is on record for CC1=NN(c2cc(Cl)ccc2Cl)C(=O)C1/N=N/c1n[nH]c2nc3cc4ccccc4cc3cc12 (stereo not given) ?
19 mm

---

Documented inhibition zone (IZ) across a set of compounds
Tested on: Pseudomonas aeruginosa
testProtocol: Antimicrobial activity against Pseudomonas aeruginosa MTCC 741 after 24 hr by disk diffusion method
Assay type: functional
Numeric answer only, unit mm assumed.

Which inhibition zone (IZ) value is on record for CC1=NN(c2ccccc2Cl)C(=O)C1/N=N/c1n[nH]c2nc3cc4ccccc4cc3cc12 (stereo not given) ?
16

Can you handle CC1=NN(c2ccc(Cl)c(Cl)c2)C(=O)C1/N=N/c1n[nH]c2nc3cc4ccccc4cc3cc12 (stereo not given) next?
21

Can you handle CC1=NN(c2cc(Cl)ccc2Cl)C(=O)C1/N=N/c1n[nH]c2nc3cc4ccccc4cc3cc12 (stereo not given) next?
18

---

System: Bacillus subtilis
testProtocol: Antimicrobial activity against Bacillus subtilis MTCC 619 after 24 hr by disk diffusion method
Type: functional
readoutKind: inhibition zone (IZ) (mm)
Numeric answer only, unit mm assumed.

Which inhibition zone (IZ) value is on record for CC1=NN(c2cc(Cl)c(S(=O)(=O)O)cc2Cl)C(=O)C1/N=N/c1n[nH]c2nc3cc4ccccc4cc3cc12 (stereo not drawn) ?
20

Can you handle CC1=NN(c2ccc(S(=O)(=O)O)cc2C)C(=O)C1/N=N/c1n[nH]c2nc3cc4ccccc4cc3cc12 (stereo not drawn) next?
11

Can you handle CC1=NN(c2cc(S(=O)(=O)O)ccc2Cl)C(=O)C1/N=N/c1n[nH]c2nc3cc4ccccc4cc3cc12 (stereo not drawn) next?
14

---

Tested on: Escherichia coli
testProtocol: Antimicrobial activity against Escherichia coli MTCC 739 after 24 hr by disk diffusion method
Type: functional
readoutKind: inhibition zone (IZ) (mm)
Numeric answer only, unit mm assumed.

Consider the reported inhibition zone (IZ) for these compounds:
>>> observed("CC1=NN(c2cccc(Cl)c2)C(=O)C1/N=N/c1n[nH]c2nc3cc4ccccc4cc3cc12 (centres undefined)")
17
>>> observed("CC1=NN(c2ccccc2Cl)C(=O)C1/N=N/c1n[nH]c2nc3cc4ccccc4cc3cc12 (centres undefined)")
16
>>> observed("CC1=NN(c2cc(Cl)c(S(=O)(=O)O)cc2Cl)C(=O)C1/N=N/c1n[nH]c2nc3cc4ccccc4cc3cc12 (centres undefined)")
16

Now consider the entry below.
Which inhibition zone (IZ) value is on record for CC1=NN(c2cccc(S(=O)(=O)O)c2)C(=O)C1/N=N/c1n[nH]c2nc3cc4ccccc4cc3cc12 (centres undefined) ?
10

---

Test system: Pseudomonas aeruginosa
testProtocol: Antimicrobial activity against Pseudomonas aeruginosa MTCC 741 after 24 hr by disk diffusion method
Format: functional
readoutKind: inhibition zone (IZ) (mm)
Numeric answer only, unit mm assumed.

>>> observed("CC1=NN(c2ccc(C)cc2)C(=O)C1/N=N/c1n[nH]c2nc3cc4ccccc4cc3cc12 (configuration not stated)")
14
>>> observed("CC1=NN(c2cccc(Cl)c2)C(=O)C1/N=N/c1n[nH]c2nc3cc4ccccc4cc3cc12 (configuration not stated)")
15
>>> observed("CC1=NN(c2ccc(S(=O)(=O)O)cc2C)C(=O)C1/N=N/c1n[nH]c2nc3cc4ccccc4cc3cc12 (configuration not stated)")
11
>>> observed("CC1=NN(c2cc(Cl)c(S(=O)(=O)O)cc2Cl)C(=O)C1/N=N/c1n[nH]c2nc3cc4ccccc4cc3cc12 (configuration not stated)")
15

Now consider the entry below.
Which inhibition zone (IZ) value is on record for CC1=NN(c2cc(S(=O)(=O)O)ccc2Cl)C(=O)C1/N=N/c1n[nH]c2nc3cc4ccccc4cc3cc12 (configuration not stated) ?
14
